settings: human gut metagenome, 24 h, 2 µM; note: call rule not given here
OUTCOME_MEASURE: Bacterial Biotransformation

These solved cases illustrate the format of a correct answer.
Answer with the recorded Bacterial Biotransformation for the molecule listed here: O=C1N=C([O-])NC1(c1ccccc1)c1ccccc1.[Na+] [PHENYTOIN SODIUM]
Compound NOT metabolized

Answer with the recorded Bacterial Biotransformation for the molecule listed here: `C=CC[C@@H]1/C=C(\C)C[C@H](C)C[C@H](OC)[C@H]2O[C@@](O)(C(=O)C(=O)N3CCCC[C@H]3C(=O)O[C@H](/C(C)=C/[C@@H]3CC[C@@H](O)[C@H](OC)C3)[C@H](C)[C@@H](O)CC1=O)[C@H](C)C[C@@H]2OC.O`
Compound metabolized

Answer with the recorded Bacterial Biotransformation for the molecule listed here: `CC[C@H](C)C(=O)O[C@H]1CCC=C2C=C[C@H](C)[C@H](CC[C@@H]3C[C@@H](O)CC(=O)O3)[C@H]21`
Compound metabolized

Answer with the recorded Bacterial Biotransformation for the molecule listed here: `CNCC[C@H](Oc1cccc2ccccc12)c1cccs1`
Compound NOT metabolized

Answer with the recorded Bacterial Biotransformation for the molecule listed here: O=C(NC(Cc1cc(=O)[nH]c2ccccc12)C(=O)O)c1ccc(Cl)cc1 (stereo not drawn) [REBAMIPIDE]
Compound NOT metabolized

Answer with the recorded Bacterial Biotransformation for the molecule listed here: `COc1ccc([C@@H]2Sc3ccccc3N(CCN(C)C)C(=O)[C@@H]2OC(C)=O)cc1`
Compound NOT metabolized

New cases:
Answer with the recorded Bacterial Biotransformation for the molecule listed here: Cc1nc(Nc2ncc(C(=O)Nc3c(C)cccc3Cl)s2)cc(N2CCN(CCO)CC2)n1 [DASATINIB ANHYDROUS]
Compound NOT metabolized

Answer with the recorded Bacterial Biotransformation for the molecule listed here: Cc1cc(C)cc(OCC2CNC(=O)O2)c1 (stereo not drawn)
Compound metabolized

Answer with the recorded Bacterial Biotransformation for the molecule listed here: `N=C(N)NC(=O)Cc1c(Cl)cccc1Cl`
Compound NOT metabolized

Answer with the recorded Bacterial Biotransformation for the molecule listed here: `CN[C@H]1CC[C@@H](c2ccc(Cl)c(Cl)c2)c2ccccc21`
Compound NOT metabolized

Answer with the recorded Bacterial Biotransformation for the molecule listed here: `COc1ccc(Cc2nccc3cc(OC)c(OC)cc23)cc1OC`
Compound NOT metabolized

Answer with the recorded Bacterial Biotransformation for the molecule listed here: CC(C)(C)NCC(O)COc1cccc2c1CC(O)C(O)C2 (stereo not drawn)
Compound NOT metabolized

Answer with the recorded Bacterial Biotransformation for the molecule listed here: C#C[C@]1(OC(C)=O)CC[C@H]2[C@@H]3CCC4=C/C(=N/O)CC[C@@H]4[C@H]3CC[C@@]21CC [NORGESTIMATE]
Compound NOT metabolized
